system.tested: human serum albumin (HSA) (Homo sapiens, UniProt P02768)
Construct: gene ALB; fatty acid-free human serum albumin
Sequence (P02768 25-609): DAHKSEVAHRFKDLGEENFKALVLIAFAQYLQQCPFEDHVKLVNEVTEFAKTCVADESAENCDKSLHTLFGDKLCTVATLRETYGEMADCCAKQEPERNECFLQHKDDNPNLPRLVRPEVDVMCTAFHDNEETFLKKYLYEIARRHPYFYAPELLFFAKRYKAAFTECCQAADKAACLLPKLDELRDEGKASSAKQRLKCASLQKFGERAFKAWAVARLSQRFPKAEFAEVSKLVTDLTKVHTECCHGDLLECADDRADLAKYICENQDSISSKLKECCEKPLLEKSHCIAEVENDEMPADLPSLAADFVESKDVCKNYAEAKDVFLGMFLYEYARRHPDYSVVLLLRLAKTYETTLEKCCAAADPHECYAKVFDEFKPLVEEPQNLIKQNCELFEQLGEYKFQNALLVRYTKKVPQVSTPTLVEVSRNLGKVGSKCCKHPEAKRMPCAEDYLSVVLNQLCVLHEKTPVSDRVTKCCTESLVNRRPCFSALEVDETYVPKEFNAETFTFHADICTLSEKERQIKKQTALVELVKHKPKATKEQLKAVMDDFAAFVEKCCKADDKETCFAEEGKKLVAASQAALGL
test.description: spectrofluorimetric titration (ex […] nm, em […] nm), pH […] °C
Type: binding
measurement.kind: Kd (µM)
I only need the number, in µM, no unit after it.

query: Return the recorded Kd value; entry: `CN(C)c1cccc2c(S(=O)(=O)N[C@@H](CCCNC(=N)N)C(=O)O)cccc12`
result: 27

---

system.tested: human serum albumin (HSA) (Homo sapiens)
Construct: gene ALB; fatty acid-free human serum albumin
test.description: spectrophotometric titration ([…]-460 nm), pH […] °C
Assay type: binding
measurement.kind: pKd
The value called pKd is obtained by taking minus log10 of the concentration in mol/L.

query: Return the recorded pKd value; entry: C=CC1=C(C)C2=Cc3c(C=C)c(C)c4[n]3[Fe+][n]3c(c(C)c(CCC(=O)O)c3=CC3=NC(=C4)C(C)=C3CCC(=O)O)=CC1=N2 [heme-Fe(III)]
result: 7.12
